# credit: patent US20250136692A1

Target: hPD-1-HIS (human) (UniProt Q15116)
Sequence (Q15116 25-167 limits assumed): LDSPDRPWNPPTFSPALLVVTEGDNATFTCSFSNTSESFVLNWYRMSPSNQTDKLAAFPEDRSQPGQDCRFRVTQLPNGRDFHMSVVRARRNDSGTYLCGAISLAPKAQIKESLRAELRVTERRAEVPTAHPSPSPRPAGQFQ
Test: ELISA, plate-coated PD-1 protein, protocol of Example 1
Attribute: hPD-1-HIS Binding (OD 450)
Give the value, in units of OD 450, as a plain number.

Example entries and their recorded answers appear below.
binder	hPD-1-HIS Binding (OD 450)
5C2-8 (antibody, human IgG1, kappa, V domains shown) VH: QVQLVQSGAEVKKPGASVKVSCKASGYTFNSYLMHWVRQAPGMGLEWMGRIRPNYSDTNYNQKFKGRVTLTVDTSTSTAYMELSSLRSEDTAVYYCAPYGNNASGFSYWGQGTLVTVSS VL: DIQMTQSPSSLSASVGDRVTITCRASQDVSTALAWYQQKPGKAPKLLIYWASTRHSGVPDRFSGSGSGTDFTLTISSLQPEDFATYYCQQHYRSPWTFGGGTKVEIKR	0.262
5C2-1 (antibody, human IgG1, kappa, V domains shown) VH: QVQLVQSGAEVKKPGASVKVSCKASGYTFNSYWMHWVRQAPGQGLEWMGRIHPRGIHTNYNQKFKGRVTLTVDTSTSTAYMELSSLRSEDTAVYYCAPSSSYAWAFAHWGQGTLVTVSS VL: DIQMTQSPSSLSASVGDRVTITCRASQDVSTALAWYQQKPGKAPKLLIYWASTRHSGVPDRFSGSGSGTDFTLTISSLQPEDFATYYCQQHYRSPGTFGGGTKVEIKR	0.791
5C2-2 (antibody, human IgG1, kappa, V domains shown) VH: QVQLVQSGAEVKKPGASVKVSCKASGQTFTSYRMHWVRQAPGQGLEWMGRILPIRSDTNYNQKFKGRVTLTVDTSTSTAYMELSSLRSEDTAVYYCARDAGYGSLFAAWGQGTLVTVSS VL: DIQMTQSPSSLSASVGDRVTITCRASQDVSTALAWYQQKPGKAPKLLIYWASTRHSGVPDRFSGSGSGTDFTLTISSLQPEDFATYYCQQHDSSPGTFGGGTKVEIKR	0.395

response.value for 5C2-3 (antibody, human IgG1, kappa, V domains shown) VH: QVQLVQSGAEVKKPGASVKVSCKASGYTFTSYWMHWVRQAPGQGLEWMGRIHPSDSDTNYNQKFKGRVTLTVDTSTSTAYMELSSLRSEDTAVYYCAPKGNYVVRFAYWGQGTLVTVSS VL: DIVMTQSPSSLSASVGDRVTITCRASQGIRNDLGWYQQKPGKAPKLLIYAASSLQSGVPSRFSGSGSDTDFTLTISSLQPEDFATYYCLQDYNYPWTFGQGTKVDIKR (field: hPD-1-HIS Binding (OD 450)) = 0.345
